Target: BRAF G469A (Homo sapiens, UniProt P15056, G469A)
Construct: Horizon Discovery (HCT-116 BRAF−/− cells); host or cells: HCT-116 BRAF−/− cells, clone 34, lentiviral transduction
Sequence (P15056 whole entry G469A): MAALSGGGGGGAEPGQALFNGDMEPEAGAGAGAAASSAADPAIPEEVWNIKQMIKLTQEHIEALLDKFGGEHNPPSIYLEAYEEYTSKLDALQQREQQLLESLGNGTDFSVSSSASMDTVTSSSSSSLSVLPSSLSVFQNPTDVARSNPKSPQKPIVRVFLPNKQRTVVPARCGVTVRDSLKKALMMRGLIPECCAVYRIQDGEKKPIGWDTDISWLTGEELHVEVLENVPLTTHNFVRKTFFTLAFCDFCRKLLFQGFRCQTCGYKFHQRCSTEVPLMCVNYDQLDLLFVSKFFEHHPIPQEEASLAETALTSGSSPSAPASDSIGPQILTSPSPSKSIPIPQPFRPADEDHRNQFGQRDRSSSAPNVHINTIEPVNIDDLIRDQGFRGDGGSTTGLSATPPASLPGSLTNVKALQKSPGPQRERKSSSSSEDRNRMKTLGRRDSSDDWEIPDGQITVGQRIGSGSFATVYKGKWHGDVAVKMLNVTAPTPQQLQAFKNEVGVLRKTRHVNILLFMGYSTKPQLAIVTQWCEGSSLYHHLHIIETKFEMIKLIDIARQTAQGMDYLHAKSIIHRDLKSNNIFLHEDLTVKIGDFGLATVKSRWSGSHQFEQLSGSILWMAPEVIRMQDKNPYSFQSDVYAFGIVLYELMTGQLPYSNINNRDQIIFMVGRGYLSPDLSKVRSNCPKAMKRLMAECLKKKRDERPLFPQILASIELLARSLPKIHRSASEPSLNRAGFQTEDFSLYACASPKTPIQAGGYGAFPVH
Experiment: BRAF HiBiT degradation assay, C-terminal HiBiT-tagged BRAF G469A overexpressed in HCT-116 BRAF−/− cells (clone 34), Nano-Glo HiBiT Lytic assay
Assay type: cell-based
Conditions: BRAF G469A (Class 2), HCT-116 BRAF−/− cells; DC50 at 50% degradation
Endpoint label: DC50

{"Compound structure string": "O=C1CCN(c2ccc(N3CCC(CN4CCN(c5ccc(-n6cc(-c7cc(C(F)F)cc(NS(=O)(=O)N8CCCC8)c7F)c(-c7ccncc7)n6)c(F)c5)CC4)CC3)cc2)C(=O)N1", "DC50": "> 500 nM"}
{"Compound structure string": "O=C1CC[C@H](c2ccc(N3CCC(CN4CCN(c5cnc(-n6cc(-c7cc(Cl)cc(NS(=O)(=O)N8CCCC8)c7F)c(-c7ccncc7)n6)nc5)CC4)CC3)cc2)C(=O)N1", "DC50": "< 10 nM"}

Ask: What value of DC50 has been recorded for this entry: O=C1CCN(c2ccc(N3CCC(CN4CCN(c5ccc(-n6cc(-c7cc(Cl)cc(NS(=O)(=O)N8CC[C@@H](F)C8)c7F)c(-c7ccncc7)n6)cc5)CC4)CC3)nc2)C(=O)N1
Result: < 10 nM

----------
Biological target: BRAF V600E (Homo sapiens, UniProt P15056, V600E)
Construct: endogenous C-terminal HiBiT fusion tag on BRAF V600E allele; endogenous in cells; host or cells: A375 clone 1F10 (CRISPR-Cas9 knock-in of the HiBiT tag; parental A375 from ATCC)
Sequence (P15056 whole entry V600E, the tested form may be a part): as the sequence (P15056 whole entry G469A) above, with A469G, V600E counted along it
Assay: BRAF HiBiT degradation assay, C-terminal HiBiT-tagged BRAF V600E A375 cells (clone 1F10), Nano-Glo HiBiT Lytic assay
Format: cell-based
Conditions: A-375; A375 (BRAF V600E, Class 1); observed Dmax, % protein degraded relative to DMSO control
Reported Dmax values for the following molecules.

A selection of reference data follows.
{"Molecule": "CCCS(=O)(=O)Nc1cccc(-c2nc(C3CCC4(CC3)CCN(C(=O)C3CCN(c5cccc6c5n(C)c(=O)n6C5CCC(=O)NC5=O)CC3)CC4)sc2-c2ccnc(N)n2)c1F (racemic)", "Endpoint label": "Dmax", "Test value": "> 70%"}
{"Molecule": "O=C1CCC(c2ccc(N3CCC(CN4CCN(c5ccc(-n6cc(-c7cc(Cl)cc(NS(=O)(=O)N8CC(F)C8)c7F)c(-c7ccncc7)n6)cc5)CC4)CC3)nc2)C(=O)N1 (racemic)", "Endpoint label": "Dmax", "Test value": "> 70%"}

Ask: For the molecule CCCS(=O)(=O)Nc1cccc(-c2nc(C3CCC4(CC3)CN(C(=O)CC3CCN(C5CCN(c6ccc7c(c6)C(=O)N(C6CCC(=O)NC6=O)C7=O)CC5)CC3)C4)sc2-c2ccnc(N)n2)c1F (racemic) , what Dmax is on record?
Result: > 70%

----------
Overview of recorded Dmax for various molecules
Target: BRAF D594G (Homo sapiens, UniProt P15056, D594G)
Construct: Horizon Discovery (HCT-116 BRAF−/− cells); host or cells: HCT-116 BRAF−/− cells, clone 63, lentiviral transduction
Sequence (P15056 whole entry D594G): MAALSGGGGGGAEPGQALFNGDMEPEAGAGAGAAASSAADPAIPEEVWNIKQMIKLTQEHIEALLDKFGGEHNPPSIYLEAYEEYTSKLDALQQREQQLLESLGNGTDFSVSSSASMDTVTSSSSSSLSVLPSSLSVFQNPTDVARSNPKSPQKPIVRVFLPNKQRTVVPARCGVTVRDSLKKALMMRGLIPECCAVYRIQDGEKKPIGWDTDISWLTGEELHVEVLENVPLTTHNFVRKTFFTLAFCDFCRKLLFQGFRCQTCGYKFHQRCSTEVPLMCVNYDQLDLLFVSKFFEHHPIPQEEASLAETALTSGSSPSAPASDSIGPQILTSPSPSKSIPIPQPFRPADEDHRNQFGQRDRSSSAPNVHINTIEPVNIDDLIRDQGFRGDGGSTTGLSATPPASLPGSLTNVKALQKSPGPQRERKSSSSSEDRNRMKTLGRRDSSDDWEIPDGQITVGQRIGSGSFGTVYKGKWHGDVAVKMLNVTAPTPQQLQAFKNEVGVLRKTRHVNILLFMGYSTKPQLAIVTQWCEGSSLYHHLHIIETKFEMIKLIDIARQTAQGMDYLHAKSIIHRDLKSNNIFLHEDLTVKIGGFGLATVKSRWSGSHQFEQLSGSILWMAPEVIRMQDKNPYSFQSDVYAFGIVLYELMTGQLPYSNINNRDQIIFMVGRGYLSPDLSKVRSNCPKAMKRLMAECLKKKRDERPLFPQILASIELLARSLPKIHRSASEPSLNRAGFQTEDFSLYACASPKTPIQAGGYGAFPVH
Assay: BRAF HiBiT degradation assay, C-terminal HiBiT-tagged BRAF D594G overexpressed in HCT-116 BRAF−/− cells (clone 63), Nano-Glo HiBiT Lytic assay
Assay type: cell-based
Conditions: BRAF D594G (Class 3), HCT-116 BRAF−/− cells; observed Dmax relative to DMSO control

Please review the following examples before continuing.
{"Molecule": "O=C1CCC(c2ccc(N3CCC4(CC3)CC(CN3CCN(c5ccc(-n6cc(-c7cc(Cl)cc(NS(=O)(=O)N8CC[C@@H](F)C8)c7F)c(-c7ccncc7)n6)nc5)CC3)C4)cc2)C(=O)N1 (mixture of isomers)", "Test value": "< 30%"}
{"Molecule": "O=C1CC[C@H](c2ccc(N3CCC(CN4CCN(c5ccc(-n6cc(-c7cc(Cl)cc(NS(=O)(=O)N8CC[C@@H](F)C8)c7F)c(-c7ccncc7)n6)c(F)c5)CC4)CC3)cc2)C(=O)N1", "Test value": "> 70%"}
{"Molecule": "O=C1CC[C@H](c2ccc(N3CCC(CN4CCN(c5ccc(-n6cc(-c7cc(C(F)F)cc(NS(=O)(=O)N8CCCC8)c7F)c(-c7ccncc7)n6)c(F)c5)CC4)CC3)cc2)C(=O)N1", "Test value": "30 to 70%"}

Ask: So what's the measured Dmax for this one? CCC(C)S(=O)(=O)Nc1cc(Cl)cc(-c2cn(-c3ccc(N4CCN(CC5CCN(c6ccc([C@@H]7CCC(=O)NC7=O)cn6)CC5)CC4)cc3)nc2-c2ccncc2)c1F (mixture of isomers)
Result: > 70%

Ask: Give the measured Dmax of C[C@@H]1CN(c2ccc(-n3cc(-c4cc(Cl)cc(NS(=O)(=O)N5CCCC5)c4F)c(-c4ccncc4)n3)cc2)CCN1CC1CCN(c2ccc(C3CCC(=O)NC3=O)cn2)CC1 (mixture of isomers) .
Result: > 70%

Ask: Bench note: what Dmax did C[C@@H]1CN(c2ccc(-n3cc(-c4cc(Cl)cc(NS(=O)(=O)N5CCCC5)c4F)c(-c4ccncc4)n3)cc2)CCN1CC1CCN(c2ccc(N3CCC(=O)NC3=O)cc2)CC1 show?
Result: 30 to 70%

Ask: For the molecule O=C1CC[C@H](c2ccc(N3CCC(CN4CCN(c5ccc(-n6cc(-c7cc(Cl)cc(NS(=O)(=O)N8CCCC8)c7F)c(-c7ccncc7)n6)cn5)CC4)CC3)cc2)C(=O)N1 , what Dmax is on record?
Result: 30 to 70%

Ask: Using the record for O=C1CCC(c2ccc(N3CCC(CN4CCN(c5ccc(-n6cc(-c7cc(Cl)cc(NS(=O)(=O)N8CCCC8)c7F)c(-c7ccncc7)n6)c(F)c5)CC4)CC3)nc2)C(=O)N1 (racemic) , report its Dmax.
Result: 30 to 70%

Ask: What Dmax value was documented for this molecule, O=C1CCC(c2ccc(N3CCC(CN4CCN(c5ccc(-n6cc(-c7cc(Cl)cc(NS(=O)(=O)N8CCCC8)c7F)c(-c7ccncc7)n6)nc5)CC4)CC3)nc2)C(=O)N1 (racemic) ?
Result: > 70%

Ask: Fill in: Dmax of O=C1CC[C@H](c2ccc(N3CCC(CN4CCN(c5ccc(-n6cc(-c7cc(Cl)cc(NS(=O)(=O)C8CCCC8)c7F)c(-c7ccncc7)n6)cc5)CC4)CC3)cc2)C(=O)N1 is ___
Result: 30 to 70%

----------
Target: BRAF G466V (Homo sapiens, UniProt P15056, G466V)
Construct: Horizon Discovery (HCT-116 BRAF−/− cells); host or cells: HCT-116 BRAF−/− cells, clone 8, lentiviral transduction
Sequence (P15056 whole entry G466V): as the sequence (P15056 whole entry G469A) above, with G466V, A469G counted along it
Assay: BRAF HiBiT degradation assay, C-terminal HiBiT-tagged BRAF G466V overexpressed in HCT-116 BRAF−/− cells (clone 8), Nano-Glo HiBiT Lytic assay
Format: cell-based
Details: BRAF G466V (Class 3), HCT-116 BRAF−/− cells; observed Dmax relative to DMSO control
Endpoint label: Dmax

Record excerpt, results attached:
{"Molecule": "O=C1CC[C@H](c2ccc(N3CCC(CN4CCN(c5ccc(-n6cc(-c7cc(Cl)cc(NS(=O)(=O)N8CCCC8)c7F)c(-c7ccncc7)n6)nc5)CC4)CC3)cc2)C(=O)N1", "Dmax": "> 70%"}
{"Molecule": "C[C@@H]1CN(c2ccc(-n3cc(-c4cc(Cl)cc(NS(=O)(=O)N5CCCC5)c4F)c(-c4ccncc4)n3)cc2)CCN1CC1CCN(c2ccc(N3CCC(=O)NC3=O)cc2)CC1", "Dmax": "> 70%"}
{"Molecule": "CCN(C)S(=O)(=O)Nc1cc(Cl)cc(-c2cn(-c3ccc(N4CCN(CC5CCN(c6ccc([C@H]7CCC(=O)NC7=O)cn6)CC5)CC4)cn3)nc2-c2ccncc2)c1F", "Dmax": "> 70%"}

Ask: GET /values?readout=Dmax&item= C[C@@H]1CN(c2ccc(-n3cc(-c4cc(Cl)cc(NS(=O)(=O)N5CC[C@@H](F)C5)c4F)c(-c4ccncc4)n3)cc2)CCN1CC1CCN(c2ccc(N3CCC(=O)NC3=O)cc2)CC1
Result: > 70%

----------
Biological target: BRAF V600E (Homo sapiens, UniProt P15056, V600E)
Construct: endogenous C-terminal HiBiT fusion tag on BRAF V600E allele; endogenous in cells; host or cells: A375 clone 1F10 (CRISPR-Cas9 knock-in of the HiBiT tag; parental A375 from ATCC)
Assay: BRAF HiBiT degradation assay, C-terminal HiBiT-tagged BRAF V600E A375 cells (clone 1F10), Nano-Glo HiBiT Lytic assay
Type: cell-based
Conditions: A375 (BRAF V600E); DC50 at 50%: fitted conc. at Y=50
Endpoint label: DC50

# annotated cases, reported DC50 shown
{"Compound": "CCCS(=O)(=O)Nc1cccc(-c2nc(C3CCN(C(=O)C4(C)CCN(C(=O)C5CCN(c6ccc(C7CCC(=O)NC7=O)cn6)CC5)CC4)CC3)sc2-c2ccncc2)c1F (racemic) [Compound 182]", "Test value": "< 10 nM"}
{"Compound": "CCCS(=O)(=O)Nc1cccc(-c2nc(-c3ccc(N4CCN(C(=O)CC5CCN(c6ccc(C7CCC(=O)NC7=O)cn6)CC5)CC4)cc3)sc2-c2ccnc(N)n2)c1F (racemic) [Compound 189]", "Test value": "< 10 nM"}

Switching to the query record.
Ask: Please give the measured DC50 for this compound: CCCS(=O)(=O)Nc1cccc(-c2nc(C(C)(C)C)sc2-c2ccnc(Nc3ccc(N4CCN(CC5CCN(c6ccc(C7CCC(=O)NC7=O)cn6)CC5)CC4)cc3)n2)c1F (racemic) [Compound 47]
Result: < 10 nM
